# ASSAY_SYSTEM: LdtMt2 (Mycobacterium tuberculosis, UniProt I6Y9J2)
# Sequence (I6Y9J2 56-408): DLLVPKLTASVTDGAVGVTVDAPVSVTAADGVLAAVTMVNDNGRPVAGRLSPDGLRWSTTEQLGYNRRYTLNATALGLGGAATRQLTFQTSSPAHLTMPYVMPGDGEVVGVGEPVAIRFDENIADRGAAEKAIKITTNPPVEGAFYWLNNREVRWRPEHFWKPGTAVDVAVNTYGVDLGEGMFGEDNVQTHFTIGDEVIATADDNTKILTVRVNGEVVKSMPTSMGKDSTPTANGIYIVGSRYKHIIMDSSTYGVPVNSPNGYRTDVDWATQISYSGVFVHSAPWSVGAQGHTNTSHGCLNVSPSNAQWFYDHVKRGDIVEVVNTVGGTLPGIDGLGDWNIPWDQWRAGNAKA
# ASSAY_DETAILS: biochemical
# Format: binding
# Parameters: made in house; host or cells: E. coli
PARAMETER_MEASURED: ΔTm: difference in melting point of LdtMt2 relative to unreacted LdtMt2 (43.8 °C)
A bare number is all that is needed in reply.

Below are worked cases with known answers.
[
  {
    "MOLECULE": "N#Cn1c(N2CCSCC2)nc2ccccc21 [Compound 27]",
    "ASSAY_SYSTEM": "LdtMt2 (Mycobacterium tuberculosis, UniProt I6Y9J2)",
    "MEASURED_RESULT": -1.3
  },
  {
    "MOLECULE": "N#Cn1c(-c2ccc(OC3CCOCC3)cc2)nc2ccccc21 [Compound 32]",
    "ASSAY_SYSTEM": "LdtMt2 (Mycobacterium tuberculosis, UniProt I6Y9J2)",
    "MEASURED_RESULT": -1.5
  },
  {
    "MOLECULE": "N#Cn1c(N2CCOCC2)nc2ccccc21 [Compound 28]",
    "ASSAY_SYSTEM": "LdtMt2 (Mycobacterium tuberculosis, UniProt I6Y9J2)",
    "MEASURED_RESULT": -1.5
  },
  {
    "MOLECULE": "N#Cn1c(-c2ccncc2)nc2ccc(-c3ccco3)cc21 [Compound 33]",
    "ASSAY_SYSTEM": "LdtMt2 (Mycobacterium tuberculosis, UniProt I6Y9J2)",
    "MEASURED_RESULT": -0.5
  },
  {
    "MOLECULE": "CC(N)C(=O)NC1CCN(c2ccc(N3CCCC3)cc2C#N)C1 (centres unmarked) [Compound 39]",
    "ASSAY_SYSTEM": "LdtMt2 (Mycobacterium tuberculosis, UniProt I6Y9J2)",
    "MEASURED_RESULT": -0.7
  },
  {
    "MOLECULE": "COc1ccc(COC(=O)C2N3C(=O)C(Br)C3S(=O)(=O)C2(C)C)cc1 (centres unmarked) [Compound 21]",
    "ASSAY_SYSTEM": "LdtMt2 (Mycobacterium tuberculosis, UniProt I6Y9J2)",
    "MEASURED_RESULT": -0.7
  }
]

Query block: Write down the reported ΔTm: difference in melting point of LdtMt2 relative to unreacted LdtMt2 (43.8 °C) of CNC(C)C(=O)NC1CCN(c2ccc(N3CCCC3)cc2C#N)C1 (centres unmarked) [Compound 38] , test system: LdtMt2 (Mycobacterium tuberculosis, UniProt I6Y9J2).
Result block: -1.0

Query block: API: value(readout= ΔTm: difference in melting point of LdtMt2 relative to unreacted LdtMt2 (43.8 °C), system= LdtMt2 (Mycobacterium tuberculosis, UniProt I6Y9J2), query= N#Cn1c(-c2ccc3nccnc3c2)nc2ccccc21 [Compound 26] )
Result block: -2.1

Query block: Give recorded ΔTm: difference in melting point of LdtMt2 relative to unreacted LdtMt2 (43.8 °C) with LdtMt2 (Mycobacterium tuberculosis, UniProt I6Y9J2) for the following molecule: N#CN1CCCN1C(=O)OCc1ccc(Cl)c(Cl)c1 [Compound 37]
Result block: -1.5

====

# ASSAY_SYSTEM: LdtMt2 (Mycobacterium tuberculosis, UniProt I6Y9J2)
# ASSAY_DETAILS: biochemical
# Assay type: biochemical
# Design: made in house; host or cells: E. coli
# CONDITION_DETAILS: pIC50 LdtMt2 (mean ± SD)
PARAMETER_MEASURED: IC50 (µM)
Entry rule: numbers only, all in µM.

Worked cases, IC50 given:
[
  {
    "MOLECULE": "C[C@@H](O)[C@H]1C(=O)N2C(C(=O)O)=C(S[C@@H]3CN[C@H](C(=O)Nc4cccc(C(=O)O)c4)C3)[C@H](C)[C@H]12 [Ertapenem, reference compound]",
    "IC50, µM": 1.58
  },
  {
    "MOLECULE": "C[C@@H](O)[C@H]1C(=O)N2C(C(=O)[O-])=C(SC3Cn4cnc[n+]4C3)[C@H](C)[C@H]12 (stereo partly drawn) [Biapenem, reference compound]",
    "IC50, µM": 79.4
  },
  {
    "MOLECULE": "Cc1onc(-c2ccccc2)c1C(=O)N[C@@H]1C(=O)N2[C@@H]1SC(C)(C)[C@@H]2C(=O)O [Oxacillin, reference compound]",
    "IC50, µM": 63.1
  }
]

Read the next record carefully.
Query block: Consider the molecule shown here: CC(=N)N1CC[C@H](SC2=C(C(=O)O)N3C(=O)[C@H]([C@@H](C)O)[C@H]3C2)C1 [Panipenem, reference compound] What is its recorded IC50?
Result block: 0.316
